Test system: A549 cells
protocol: Viability studies (trypan blue staining and cell counting) with or without IR excitation
Format: cell-based, human
cond: A549 cells; 850 nm irradiation; linear regression analysis; read-out: IC50 850 nm
pIC50: −log10 of the molar value.
reported-metric: pIC50

molecule="CCN1C(=CC=C2CCCC(C=CC3=[N+](CC)c4ccc5ccccc5c4C3(C)C)=C2Cl)C(C)(C)c2c1ccc1ccccc21.Fc1c(F)c(F)c([B-](c2c(F)c(F)c(F)c(F)c2F)(c2c(F)c(F)c(F)c(F)c2F)c2c(F)c(F)c(F)c(F)c2F)c(F)c1F [CyTPFB]" observed_measurement=4.96
molecule="CCN1C(=CC=C2CCCC(C=CC3=[N+](CC)c4ccc5ccccc5c4C3(C)C)=C2Cl)C(C)(C)c2c1ccc1ccccc21.Fc1ccc([B-](c2ccc(F)cc2)(c2ccc(F)cc2)c2ccc(F)cc2)cc1 [CyFPhB]" observed_measurement=5.46
molecule="CCN1C(=CC=C2CCCC(C=CC3=[N+](CC)c4ccc5ccccc5c4C3(C)C)=C2Cl)C(C)(C)c2c1ccc1ccccc21.FC(F)(F)c1cc([B-](c2cc(C(F)(F)F)cc(C(F)(F)F)c2)(c2cc(C(F)(F)F)cc(C(F)(F)F)c2)c2cc(C(F)(F)F)cc(C(F)(F)F)c2)cc(C(F)(F)F)c1 [CyTFM]" observed_measurement=4.54
molecule="CCN1C(=CC=C2CCCC(C=CC3=[N+](CC)c4ccc5ccccc5c4C3(C)C)=C2Cl)C(C)(C)c2c1ccc1ccccc21.F[P-](F)(F)(F)(F)F [CyPF6]" observed_measurement=6.05
molecule="CCN1C(=CC=C2CCCC(C=CC3=[N+](CC)c4ccc5ccccc5c4C3(C)C)=C2Cl)C(C)(C)c2c1ccc1ccccc21.Clc1c(Cl)c(Cl)c2c(c1Cl)O[P-]13(O2)(Oc2c(Cl)c(Cl)c(Cl)c(Cl)c2O1)Oc1c(Cl)c(Cl)c(Cl)c(Cl)c1O3 [CyTRIS]" observed_measurement=2.92

====

Tested on: A549 cells
protocol: Viability studies (trypan blue staining and cell counting) with or without IR excitation
Assay type: cell-based, human
cond: A549 cells; dark, no irradiation; linear regression analysis; read-out: IC50 Dark
IC50 overview
reported-metric: IC50 (µM)

compound="CCN1C(=CC=C2CCCC(C=CC3=[N+](CC)c4ccc5ccccc5c4C3(C)C)=C2Cl)C(C)(C)c2c1ccc1ccccc21.FC(F)(F)c1cc([B-](c2cc(C(F)(F)F)cc(C(F)(F)F)c2)(c2cc(C(F)(F)F)cc(C(F)(F)F)c2)c2cc(C(F)(F)F)cc(C(F)(F)F)c2)cc(C(F)(F)F)c1 [CyTFM]" assay_system="A549 cells" reported_metric=IC50 observed_measurement=125
compound="CCN1C(=CC=C2CCCC(C=CC3=[N+](CC)c4ccc5ccccc5c4C3(C)C)=C2Cl)C(C)(C)c2c1ccc1ccccc21.Fc1c(F)c(F)c([B-](c2c(F)c(F)c(F)c(F)c2F)(c2c(F)c(F)c(F)c(F)c2F)c2c(F)c(F)c(F)c(F)c2F)c(F)c1F [CyTPFB]" assay_system="A549 cells" reported_metric=IC50 observed_measurement=126
compound="CCN1C(=CC=C2CCCC(C=CC3=[N+](CC)c4ccc5ccccc5c4C3(C)C)=C2Cl)C(C)(C)c2c1ccc1ccccc21.F[P-](F)(F)(F)(F)F [CyPF6]" assay_system="A549 cells" reported_metric=IC50 observed_measurement=1.6
compound="CCN1C(=CC=C2CCCC(C=CC3=[N+](CC)c4ccc5ccccc5c4C3(C)C)=C2Cl)C(C)(C)c2c1ccc1ccccc21.Fc1ccc([B-](c2ccc(F)cc2)(c2ccc(F)cc2)c2ccc(F)cc2)cc1 [CyFPhB]" assay_system="A549 cells" reported_metric=IC50 observed_measurement=46
compound="CCN1C(=CC=C2CCCC(C=CC3=[N+](CC)c4ccc5ccccc5c4C3(C)C)=C2Cl)C(C)(C)c2c1ccc1ccccc21.Clc1c(Cl)c(Cl)c2c(c1Cl)O[P-]13(O2)(Oc2c(Cl)c(Cl)c(Cl)c(Cl)c2O1)Oc1c(Cl)c(Cl)c(Cl)c(Cl)c1O3 [CyTRIS]" assay_system="A549 cells" reported_metric=IC50 observed_measurement=1220
